These data points were gathered from paper PMC2756588.

TARGET: T1, Lsb3, P43603
T1 sequence (P43603 385-451, looked up): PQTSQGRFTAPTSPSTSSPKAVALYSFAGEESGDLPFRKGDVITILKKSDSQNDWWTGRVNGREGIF
ASSAY_OVERVIEW: SPOT array
DETAILS: median of control spots 406

- BINDER: "PLQSKIPMLPSRRTM"
  SPOT intensity: 635
- BINDER: "NQARKPFLLPATELS"
  SPOT intensity: 0
- BINDER: "KRKRFNLLLPKPYLT"
  SPOT intensity: 0
- BINDER: "YRRKSIPFAPHQITA"
  SPOT intensity: 0
- BINDER: "NFFRKKLGIPRKLKR"
  SPOT intensity: 1
- BINDER: "ISNFVPPNLPMRRFK"
  SPOT intensity: 588
- BINDER: "LPPPPPPPPPPPLPQ"
  SPOT intensity: 0
- BINDER: "RKNRAPPQRPRFNRE"
  SPOT intensity: 30
- BINDER: "PVLPPPRSPNRPTLS"
  SPOT intensity: 102
- BINDER: "RTIRKLPLMSLSEYF"
  SPOT intensity: 3
- BINDER: "ISPPASPPPEFDFSK"
  SPOT intensity: 0
- BINDER: "EAEEAAPQLPSRSSA"
  SPOT intensity: 956
- BINDER: "VTHRLRISIPGITGR"
  SPOT intensity: 8
- BINDER: "KIRRSSLMIPNPQQF"
  SPOT intensity: 14
- BINDER: "FPGKKSPRLPHRNKK"
  SPOT intensity: 155
